test system: RARg homodimer (NR concentration 270 nM); assay: PBM binding z-score (relative to random genomic background probes); higher = stronger binding; sequences stand for … in GC…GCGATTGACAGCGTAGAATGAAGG
Respond with Satisfied for PBM binding z-score values of 1 and above, Not satisfied for values below.

Sample answers from the record:
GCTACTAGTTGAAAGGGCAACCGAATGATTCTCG : Satisfied
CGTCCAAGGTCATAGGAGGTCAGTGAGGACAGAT : Satisfied
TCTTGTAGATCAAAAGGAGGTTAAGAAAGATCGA : Not satisfied

## Task Say whether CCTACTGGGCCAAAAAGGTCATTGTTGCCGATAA shows PBM binding z-score of 1 or more.
## Result Satisfied

## Task What would you report for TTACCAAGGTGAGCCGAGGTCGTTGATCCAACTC ?
## Result Satisfied

## Task Repeat with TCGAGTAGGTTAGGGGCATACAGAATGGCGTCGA
## Result Not satisfied

// provenance: the supplement of paper PMC6555819
